Target: GST-tagged recombinant full-length human PIM-2 (Homo sapiens (Human))
Test: PIM-2 Enzyme Assay
Settings: read-out: PIM-2 IC50; 4 μM ATP, […] PIM-2
Structures can show the parent of a compound that is named as a salt.
value-type: pIC50
Give only the number. pIC50 is defined as minus log10 of concentration in molar units.

Answered examples (3):
{"compound": "CN(C)C(=O)[C@@H]1C[C@@H](Oc2cccc3ccc(-c4nnc5ccccn45)nc23)CCN1 [Example 54, dihydrochloride]", "value-reported": 5.00}
{"compound": "NCC1(COc2cccc3ccc(-c4nnc5ccccn45)nc23)CCCC1", "value-reported": 6.00}
{"compound": "CC(C)(C)COc1cccc2ccc(-c3nnc4ccccn34)nc12", "value-reported": 6.84}

For the next question, use this compound.
# query: pIC50 of entry c1cc(OC2CCCNCC2)c2nc(-c3nnc4ccccn34)ccc2c1 (single isomer, unassigned) [Example 128]
6.00

###

Target: GST-tagged recombinant full-length human PIM-2 (Homo sapiens (Human), UniProt Q9P1W9)
Sequence (Q9P1W9 whole entry): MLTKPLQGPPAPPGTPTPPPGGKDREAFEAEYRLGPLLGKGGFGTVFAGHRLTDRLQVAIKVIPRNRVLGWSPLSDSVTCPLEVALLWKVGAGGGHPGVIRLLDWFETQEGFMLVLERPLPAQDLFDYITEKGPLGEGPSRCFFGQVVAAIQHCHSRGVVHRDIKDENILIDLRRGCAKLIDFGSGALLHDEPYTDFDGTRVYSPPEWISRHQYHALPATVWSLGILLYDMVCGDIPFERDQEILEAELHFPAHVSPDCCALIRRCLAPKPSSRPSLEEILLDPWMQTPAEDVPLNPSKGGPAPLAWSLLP
Experiment: PIM-2 Enzyme Assay
Conditions: read-out: PIM-2 IC50
Where a name gives a salt, the structure may show the parent alone.
value-type: IC50 (nM)
Give the value, in units of nM, as a plain number.

# query: IC50 of entry CC1(COc2cccc3ccc(-c4nnc5ccccn45)nc23)CCN(CCO)CC1 [Example 86, dihydrochloride]
142

# query: IC50 of entry F[C@@H]1CNCC[C@@H]1Oc1cccc2ccc(-c3nnc4ccc(Br)cn34)nc12 (relative stereo) [Example 78, dihydrochloride]
1280

# query: IC50 of entry FC1(COc2cccc3ccc(-c4nnc5ccc(Br)cn45)nc23)CCNCC1 [Example 77, dihydrochloride]
1390

# query: IC50 of entry c1cc(OC2CCNCC2)c2nc(-c3nnc4ccccn34)ccc2c1 [Example 9, di-trifluoroacetate]
570

###

Target: GST-tagged recombinant full-length human PIM-2 (Homo sapiens (Human))
Assay: PIM-2 Enzyme Assay
Details: read-out: PIM-2 IC50; 4 μM ATP, […] PIM-2
Where a name gives a salt, the structure may show the parent alone.
Reported log10 IC50 values follow for various compounds
For clarity, the numbers are log10 values of IC50 expressed in nM.

{"compound": "CC(C)(CNCC(F)F)COc1cccc2ccc(-c3nnc4ccccn34)nc12 [Example 135, hydrochloride]", "log10 IC50": 2.70}
{"compound": "CC(C)C1(COc2cccc3ccc(-c4nnc5ccccn45)nc23)CCNCC1 [Example 70, dihydrochloride]", "log10 IC50": 1.83}

# query: log10 IC50 of entry c1cc(Oc2ccncc2)c2nc(-c3nnc4ccccn34)ccc2c1
3.30

# query: log10 IC50 of entry c1cc(OCc2ccncc2)c2nc(-c3nnc4ccccn34)ccc2c1
3.24

# query: log10 IC50 of entry c1cc(O[C@H]2CCNC2)c2nc(-c3nnc4ccccn34)ccc2c1
3.69

# query: log10 IC50 of entry CC(C)(COc1cc(F)cc2ccc(-c3nnc4ccccn34)nc12)[C@@H](O)CO [Example 112, dihydrochloride]
2.48

# query: log10 IC50 of entry COC1(COc2cc(F)cc3ccc(-c4nnc5ccccn45)nc23)CCCN(CCO)CC1 (centres unmarked) [Example 115, dihydrochloride]
2.35

# query: log10 IC50 of entry CC(C)(CNC(=O)CF)COc1cccc2ccc(-c3nnc4ccccn34)nc12
2.98

###

Tested on: BaF2 BCR-Ab1 (Mouse pro-B-cell transformed with BCR-Ab1 fusion)
Assay: Cellular Proliferation Assay, cell line H
Type: cell-based
Conditions: BaF2 BCR-Ab1, 72 hours, CelltiterBlue, read-out: Cell Line H antiproliferative IC50
Procedure: The assay for determination of the antiproliferative activity of multiple Pim inhibitors in the JAK2-driven cell lines was conducted as follows. Cells were plated out to 96-well plates at an initial density of 10,000 cells/well in 95 pt. […] CelltiterBlue reagent (Promega, Catalog #: G8080) was then added (20 μL/well) and incubated at 37° C., 5% CO2 for 1-8 hours depending on the cell line being analyzed. […]
Structures can show the parent of a compound that is named as a salt.
value-type: IC50

# query: IC50 of entry F[C@@H]1CNCCC1Oc1cccc2ccc(-c3nnc4ccccn34)nc12 (stereo in doubt) [Example 26, dihydrochloride]
< 2000 nM

###

Target: recombinant rat PIM-3 (Rattus norvegicus (Rat), UniProt O70444)
Test: PIM-3 Enzyme Assay
Settings: read-out: PIM-3 IC50; 30 μM ATP, 0.5 nM PIM-3; dihydrochloride
Counter-ions that a name gives are not always drawn.
value-type: pIC50
Give only the number. pIC50 is defined as minus log10 of concentration in molar units.

{"compound": "c1cc(OC2CCCNCC2)c2nc(-c3nnc4ccccn34)ccc2c1 (centres unmarked) [Example 52, dihydrochloride]", "value-type": "pIC50", "value-reported": 8.40}

For the next question, use this compound.
# query: pIC50 of entry Cc1ccc2nnc(-c3ccc4cccc(OC5CCNCCC5F)c4n3)n2c1 (single isomer, unassigned) [Example 99, dihydrochloride]
7.40

###

Biological target: GST-tagged recombinant full-length human PIM-2 (Homo sapiens (Human), UniProt Q9P1W9)
Assay: PIM-2 Enzyme Assay
Details: read-out: PIM-2 IC50; 4 μM ATP, […] PIM-2; dihydrochloride
Counter-ions that a name gives are not always drawn.
value-type: pIC50
Give only the number. pIC50 is defined as minus log10 of concentration in molar units.

# query: pIC50 of entry c1cc(OC2CCCNCC2)c2nc(-c3nnc4ccccn34)ccc2c1 (stereo not drawn) [Example 52, dihydrochloride]
6.96

# query: pIC50 of entry FC1CNCCC1Oc1cccc2ccc(-c3nnc4ccccn34)nc12 (single isomer, unassigned) [Example 96, dihydrochloride]
6.00

# query: pIC50 of entry FC1CNCCC1Oc1cccc2ccc(-c3nnc4ccccn34)nc12 (single isomer, unassigned) [Example 95, dihydrochloride]
6.32

###

Molecular target: PIM-1 (Homo sapiens (Human), UniProt P11309)
Sequence (P11309 whole entry, species assumed): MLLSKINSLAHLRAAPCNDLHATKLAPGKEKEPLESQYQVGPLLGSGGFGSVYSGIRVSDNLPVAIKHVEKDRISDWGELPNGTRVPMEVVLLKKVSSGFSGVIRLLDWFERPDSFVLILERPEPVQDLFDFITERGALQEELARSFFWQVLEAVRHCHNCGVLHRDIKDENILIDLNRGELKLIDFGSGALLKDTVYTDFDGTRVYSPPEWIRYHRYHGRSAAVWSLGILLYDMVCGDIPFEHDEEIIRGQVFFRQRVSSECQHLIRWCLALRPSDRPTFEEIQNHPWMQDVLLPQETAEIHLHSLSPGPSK
Experiment: PIM-1 Enzyme Assay
Format: biochemical
Details: 35 μM ATP, 0.25 nM PIM-1
Doc: threshold 5 nM (exclusive). Items with IC50 beneath it return 1; others return -1.

{"compound": "c1cc(OC[C@@H]2CCCN2)c2nc(-c3nnc4ccccn34)ccc2c1", "label": -1}

Take the compound CCC(CO)COc1cccc2ccc(-c3nnc4ccccn34)nc12 (centres unmarked) and say whether its IC50 is less than 5 nM.
-1

###

Target: PIM-1 (Homo sapiens (Human), UniProt P11309)
Experiment: PIM-1 Enzyme Assay
Format: biochemical
Details: 35 μM ATP, 0.25 nM PIM-1
Method: The amount of radiolabeled product is then measured by liquid scintillation counting. The final buffer conditions were as follows: 20 mM K^+MOPS, pH 7.4, 10 mM MgCl2, 0.005% Tween-20, 1 mM DTT. […] Liquid scintillation cocktail (50 μL ) was then added per well, and the plate was counted for 30 s/well using a TopCount NXT. […]
Counter-ions that a name gives are not always drawn.
Reported IC50 values follow for various compounds
Give the value, in units of nM, as a plain number.

Answered examples (3):
{"compound": "c1cc(N[C@@H]2CCNC2)c2nc(-c3nnc4ccccn34)ccc2c1 [Example 5]", "measurement-target": "PIM-1 (Homo sapiens (Human), UniProt P11309)", "IC50 [nM]": 5}
{"compound": "COC1(COc2cccc3ccc(-c4nnc5ccccn45)nc23)CCCNCC1 (stereo not shown) [Example 117, dihydrochloride]", "measurement-target": "PIM-1 (Homo sapiens (Human), UniProt P11309)", "IC50 [nM]": 1}
{"compound": "FC1CCNCCC1Oc1cccc2ccc(-c3nnc4ccccn34)nc12 (single isomer, unassigned) [Example 48, dihydrochloride]", "measurement-target": "PIM-1 (Homo sapiens (Human), UniProt P11309)", "IC50 [nM]": 0.7}

For the next question, use this compound.
Lab request: please report IC50 under test system PIM-1 (Homo sapiens (Human), UniProt P11309) for Fc1cc(OC2CCNCCC2F)c2nc(-c3nnc4ccccn34)ccc2c1 (single isomer, unassigned) [Example 90]
0.4

###

Target: GST-tagged recombinant full-length human PIM-2 (Homo sapiens (Human))
Assay: PIM-2 Enzyme Assay
Conditions: read-out: PIM-2 IC50
Structures can show the parent of a compound that is named as a salt.
value-type: IC50 (nM)
Give the value, in units of nM, as a plain number.

Answered examples (5):
{"molecule": "Fc1ccc2nnc(-c3ccc4cccc(OCC5(F)CCNCC5)c4n3)n2c1 [Example 103, dihydrochloride]", "value-reported": 65.6}
{"molecule": "CC(C)(CN)COc1cccc2ccc(-c3nnc4ccc(Br)cn34)nc12 [Example 63, dihydrochloride]", "value-reported": 101}
{"molecule": "CC(C)(CN)COc1cccc2ccc(-c3nnc4ccc(C5CC5)cn34)nc12 [Example 64, dihydrochloride]", "value-reported": 323}
{"molecule": "FC1(COc2cccc3ccc(-c4nnc5ccccn45)nc23)CCNCC1 [Example 66, dihydrochloride]", "value-reported": 52}
{"molecule": "OCCN1CCC(F)(COc2cccc3ccc(-c4nnc5ccccn45)nc23)CC1 [Example 85, dihydrochloride]", "value-reported": 105}

Lab request: please report IC50 under test system GST-tagged recombinant full-length human PIM-2 (Homo sapiens (Human)) for OC1(COc2cccc3ccc(-c4nnc5ccccn45)nc23)CCCNCC1 (stereo not shown) [Example 116, bis-trifluoroacetate]
1000

Lab request: please report IC50 under test system GST-tagged recombinant full-length human PIM-2 (Homo sapiens (Human)) for FC1CNCCCC1Oc1cccc2ccc(-c3nnc4ccccn34)nc12 (stereo not shown) [Example 51, dihydrochloride]
406
